Reference for the values: PubChem BioAssay AID1159580

Experiment: chemical genetic growth profiling, strain panel (AID 1159580);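 further: tested at 20 µM; growth read once vehicle control cultures reached saturation at 30 °C; lower values mean less growth of the strain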
Settings: S. cerevisiae deletion strains, growth OD, locus YDR502C, strain sam2
About 2,000 (36%) of roughly 5,500 compounds were called active. Not shown: some 18% with an inconclusive outcome. No stated cut-off is given here; in the data, active means normalized growth mostly below about 0.91 (no sharp cut-off); inconclusive means no clear call, values can overlap the other calls; inactive means mostly above about 0.92. The list shows a part of the results.
Outcomes: active, inactive

| compound | labelClass |
| --- | --- |
| NCCc1c[nH]c2ccccc12 | inactive |
| COc1cc2c(cc1OC)[C@@]13CCN4CC5=CCOC6CC(=O)N2C1[C@H]6[C@H]5C[C@H]43 (some centres undefined) | inactive |
| CC1=C(O)C(=O)C=C2C1=CC=C1[C@@]2(C)CC[C@@]2(C)[C@@H]3C[C@](C)(C(=O)O)CC[C@]3(C)CC[C@]12C | active |
| CC1(C)C(=O)[C@@H]2C[C@@]3(O)C4=CC(=O)O[C@@H](c5ccoc5)[C@]4(C)CCC3[C@@](C)(C2=O)[C@H]1CC(=O)O (some centres undefined) | inactive |
| CC1(C)C=Cc2cc3ccc(=O)oc3cc2O1 | active |
| CC(=O)N[C@@H](Cc1c[nH]c2ccccc12)C(=O)O | inactive |
| CC1=CC2C(C(C)C)CCC(C)(O)C2CC1 (centres undefined) | inactive |
| OC(c1cc(C(F)(F)F)nc2c(C(F)(F)F)cccc12)C1CCCCN1 (centres undefined) | inactive |
| CC(=O)Oc1cc2c(c(C)c1OC(C)=O)CC1OC13C2(C)CCC1(C)C2CC(C)(C(=O)O)CCC2(C)CCC13C (centres undefined) | inactive |
